- System: Mycobacterium tuberculosis
- Run Description: Antitubercular activity against dormant Mycobacterium bovis BCG after at 3 ug 12 days by nitrate reductase assay
- Type: functional, variant bovis BCG
// bucketize inhibition (INH): low group = under 10%, middle group = from 10% up to 30%, high group = 30% and over

[
  {
    "Compound": "Nc1nccnc1C(=O)NN1C(=O)CSC1c1ccc(O)cc1 (stereo not drawn)",
    "Class Label": "middle group"
  },
  {
    "Compound": "Nc1nccnc1C(=O)NN1C(=O)CS[C@H]1c1ccc([N+](=O)[O-])cc1",
    "Class Label": "high group"
  },
  {
    "Compound": "Cc1cnc(C(=O)NN2C(=O)CSC2c2ccc(O)cc2)cn1 (stereo not drawn)",
    "Class Label": "low group"
  },
  {
    "Compound": "COc1ccc(C2SCC(=O)N2NC(=O)c2cnc(C)cn2)cc1 (stereo not drawn)",
    "Class Label": "low group"
  },
  {
    "Compound": "O=C(NN1C(=O)CS[C@@H]1c1ccc(Cl)cc1)c1cnccn1",
    "Class Label": "high group"
  },
  {
    "Compound": "Nc1nccnc1C(=O)NN1C(=O)CSC1c1ccc(Cl)cc1Cl (stereo not drawn)",
    "Class Label": "middle group"
  },
  {
    "Compound": "Nc1nccnc1C(=O)NN1C(=O)CSC1c1ccc(Cl)cc1 (stereo not drawn)",
    "Class Label": "middle group"
  },
  {
    "Compound": "Nc1nccnc1C(=O)NN1C(=O)CSC1c1ccccc1 (stereo not drawn)",
    "Class Label": "middle group"
  },
  {
    "Compound": "Nc1nccnc1C(=O)NN1C(=O)CSC1c1cccc([N+](=O)[O-])c1 (stereo not drawn)",
    "Class Label": "high group"
  },
  {
    "Compound": "Cc1cnc(C(=O)NN2C(=O)CSC2c2ccc(Cl)cc2)cn1 (stereo not drawn)",
    "Class Label": "high group"
  },
  {
    "Compound": "Cc1cnc(C(=O)NN2C(=O)CSC2c2ccccc2)cn1 (stereo not drawn)",
    "Class Label": "high group"
  },
  {
    "Compound": "Cc1cnc(C(=O)NN2C(=O)CS[C@@H]2c2cccc([N+](=O)[O-])c2)cn1",
    "Class Label": "middle group"
  },
  {
    "Compound": "COc1cc([C@@H]2SCC(=O)N2NC(=O)c2cnc(C)cn2)ccc1O",
    "Class Label": "low group"
  },
  {
    "Compound": "Nc1nccnc1C(=O)NN1C(=O)CSC1c1ccc(F)cc1 (stereo not drawn)",
    "Class Label": "middle group"
  },
  {
    "Compound": "COc1ccc(C2SCC(=O)N2NC(=O)c2cnc(C)cn2)cc1OC (stereo not drawn)",
    "Class Label": "low group"
  },
  {
    "Compound": "Cc1cnc(C(=O)NN2C(=O)CS[C@@H]2c2ccc([N+](=O)[O-])cc2)cn1",
    "Class Label": "low group"
  },
  {
    "Compound": "CCOc1cc([C@@H]2SCC(=O)N2NC(=O)c2cnc(C)cn2)ccc1O",
    "Class Label": "low group"
  },
  {
    "Compound": "CN(C)c1ccc(C2SCC(=O)N2NC(=O)c2nccnc2N)cc1 (stereo not drawn)",
    "Class Label": "middle group"
  },
  {
    "Compound": "COc1ccc([C@H]2SCC(=O)N2NC(=O)c2nccnc2N)cc1OC",
    "Class Label": "low group"
  },
  {
    "Compound": "O=C(NN1C(=O)CS[C@@H]1c1ccc([N+](=O)[O-])cc1)c1cnccn1",
    "Class Label": "middle group"
  }
]
